Could you please report measured IC50 for the items listed next?
- System: Human immunodeficiency virus 1
- experiment-description: Antiviral activity against HIV1 3B laboratory isolate assessed as inhibition of virus-induced cytopathogenicity by MTT assay
- Assay type: functional, organism-based
- particulars: Human immunodeficiency virus 1, 3B
Write the number in µM without appending the unit.

Ask: I'd like to know its IC50. The compound in question is CC1(C)CC(NC(=O)C(=O)Nc2ccc(Cl)cc2)CC(C)(C)N1
Reply: 8

Ask: I'd like to know its IC50. The compound in question is Cc1ccc(NC(=O)C(=O)NC2CC(C)(C)NC(C)(C)C2)cc1
Reply: 23

Ask: I'd like to know its IC50. The compound in question is CC1(C)CC(NC(=O)C(=O)Nc2ccc(Br)cc2)CC(C)(C)N1
Reply: 4

Ask: I'd like to know its IC50. The compound in question is CC1(C)CC(NC(=O)C(=O)Nc2ccc(F)cc2)CC(C)(C)N1
Reply: 61
